- Test system: HCC827-YVMA cells (human ERBB2 exon20 insertion mutant A775_G776ins YVMA)
- Assay Text: Cell growth inhibition (CellTiter-Glo, 3 days) in HCC827-YVMA
- Type: cell-based
- Details: 72 h, 3 days after administration
Catalogue of GI50 readings, one per entry.

These recorded examples may help you get a feel for the data.
>  <Compound>
C=CC(=O)N1CCC(Oc2cc3c(Nc4ccc(Oc5ccnc(N6C[C@@H](C)O[C@@H](C)C6)c5)cc4F)ncnc3cc2OC)CC1 [Example 152]

>  <GI50>
60 to 100 nM

$$$$
>  <Compound>
C=CC(=O)N1CCC(Nc2cc3c(Nc4ccc(Oc5nc(-c6cnc(C)nc6)cs5)cc4F)ncnc3cc2OC)CC1 [Example 32]

>  <GI50>
< 30 nM

$$$$
>  <Compound>
C=CC(=O)N1CCC(Nc2cc3c(Nc4ccc(Oc5ccnc(N6CCO[C@H](C)C6)c5)cc4F)ncnc3cc2OC)CC1 [Example 133]

>  <GI50>
< 30 nM

$$$$

Continue with the next compound.
Lookup: GI50 / HCC827-YVMA cells (human ERBB2 exon20 insertion mutant A775_G776ins YVMA) / C=CC(=O)N1CCC(Nc2cc3c(Nc4ccc(Oc5ccnc(N6C[C@H](OC)[C@H](OC)C6)n5)cc4F)ncnc3cc2OC)CC1 [Compound 260]
< 30 nM

* * *

Catalogue of GI50 readings, one per entry.
- Test system: HCC827-YVMA cells (human ERBB2 exon20 insertion mutant A775_G776ins YVMA)
- Assay Text: Cell growth inhibition (CellTiter-Glo, 3 days) in HCC827-YVMA
- Format: cell-based
- Details: 72 h, 3 days after administration

>  <Compound>
C=CC(=O)N1CCC(Nc2cc3c(Nc4ccc(Oc5ccnc(N6CCOC[C@@H]6CO)c5)cc4F)ncnc3cc2OC)CC1 [Example 127]

>  <Target Entity>
HCC827-YVMA cells (human ERBB2 exon20 insertion mutant A775_G776ins YVMA)

>  <Parameter Measured>
GI50

>  <Observed Measurement>
100 to 300 nM

$$$$
>  <Compound>
C=CC(=O)N1CCC(Nc2cc3c(Nc4ccc(Oc5ccnc(-c6cncs6)c5)cc4F)ncnc3cc2OC)CC1 [Example 42]

>  <Target Entity>
HCC827-YVMA cells (human ERBB2 exon20 insertion mutant A775_G776ins YVMA)

>  <Parameter Measured>
GI50

>  <Observed Measurement>
600 to 1000 nM

$$$$
>  <Compound>
C=CC(=O)N1CCC(Nc2cc3c(Nc4ccc(Oc5ccnc(N6CCOC(C)(C)C6)c5)cc4F)ncnc3cc2OC)CC1 [Example 138]

>  <Target Entity>
HCC827-YVMA cells (human ERBB2 exon20 insertion mutant A775_G776ins YVMA)

>  <Parameter Measured>
GI50

>  <Observed Measurement>
< 30 nM

$$$$
>  <Compound>
C=CC(=O)N1CCC(Nc2cc3c(Nc4ccc(Oc5ccn(-c6cccc(OC)n6)n5)cc4F)ncnc3cc2OC)CC1 [Example 58]

>  <Target Entity>
HCC827-YVMA cells (human ERBB2 exon20 insertion mutant A775_G776ins YVMA)

>  <Parameter Measured>
GI50

>  <Observed Measurement>
60 to 100 nM

$$$$

Bench note: what GI50 did C=CC(=O)N1CCC(Nc2cc3c(Nc4ccc(Oc5ccnc(N6CC[C@@H](OC)C6)c5)cc4F)ncnc3cc2OC)CC1 [Example 114] show?
100 to 300 nM

Bench note: what GI50 did C=CC(=O)N1CCC(Nc2cc3c(Nc4ccc(Oc5ccnc(C(=O)N(C)C)c5)cc4F)ncnc3cc2OC)CC1 [Example 182] show?
300 to 600 nM

Bench note: what GI50 did C=CC(=O)N1CCC(Nc2cc3c(Nc4cc(Cl)c(Oc5ccn(-c6cnc(C)c(F)c6)n5)cc4F)ncnc3cc2OC)CC1 [Example 19] show?
60 to 100 nM

* * *

- System: HCC827-YVMA cells (human ERBB2 exon20 insertion mutant A775_G776ins YVMA)
- Assay Text: Cell growth inhibition (CellTiter-Glo, 3 days) in HCC827-YVMA
- Format: cell-based
- Details: 72 h, 3 days after administration
Parameter Measured: GI50

>  <Record Smiles>
C=CC(=O)N1CCC(Nc2cc3c(Nc4ccc(Oc5ccnc(N6C[C@@H](F)[C@@H](OC)C6)c5)cc4F)ncnc3cc2OC)CC1

>  <GI50>
< 30 nM

$$$$
>  <Record Smiles>
C=CC(=O)N1CCC(Nc2cc3c(Nc4ccc(Oc5ccnc(NC6CCCC6)c5)cc4F)ncnc3cc2OC)CC1

>  <GI50>
< 30 nM

$$$$

Bench note: what GI50 did C=CC(=O)N1CCC(Nc2cc3c(Nc4ccc(Oc5ccnc(N6CC(CO)C6)c5)cc4F)ncnc3cc2OC)CC1 show?
300 to 600 nM

Bench note: what GI50 did C=CC(=O)N1CCC(Nc2cc3c(Nc4ccc(Oc5ccnc(N6C7CCC6COC7)c5)cc4F)ncnc3cc2OC)CC1 show?
30 to 60 nM

* * *

- System: A431 cells
Catalogue of GI50 readings, one per entry.

Lookup: GI50 / A431 cells / C=CC(=O)N1CCC(Nc2cc3c(Nc4ccc(Oc5ccnc(N6C7CCC6COC7)c5)cc4F)ncnc3cc2OC)CC1
600 to 1000 nM

Lookup: GI50 / A431 cells / C=CC(=O)N1CCC(Nc2cc3c(Nc4ccc(Oc5ccnc(-c6ccccn6)c5)cc4F)ncnc3cc2OC)CC1
≥ 1000 nM

* * *

- System: A431 cells
- Assay Text: Cell growth inhibition (CellTiter-Glo, 3 days) in A431
- Assay type: cell-based
- Details: Homo sapiens, A-431, 72 h, 3 days after administration
Parameter Measured: GI50

>  <Compound>
C=CC(=O)N1CCC(Nc2cc3c(Nc4ccc(Oc5ccnc(N6CCC[C@H](C)C6)c5)cc4F)ncnc3cc2OC)CC1 [Example 222]

>  <Observed Measurement>
600 to 1000 nM

$$$$
>  <Compound>
C=CC(=O)N1CCC(Nc2cc3c(Nc4ccc(Oc5ccnc(N6CCC(N(C)C)CC6)c5)cc4F)ncnc3cc2OC)CC1 [Example 122]

>  <Observed Measurement>
≥ 1000 nM

$$$$
>  <Compound>
C=CC(=O)N1CCC(Nc2cc3c(Nc4ccc(Oc5ccn(-c6cnc(C)c(F)c6)n5)c(F)c4)ncnc3cc2OC)CC1 [Example 86]

>  <Observed Measurement>
60 to 100 nM

$$$$
>  <Compound>
C=CC(=O)N1CCC(Nc2cc3c(Nc4ccc(Oc5ccnc(N6CCC(O)C(C)(C)C6)c5)cc4F)ncnc3cc2OC)CC1 (stereo not shown) [Example 171]

>  <Observed Measurement>
600 to 1000 nM

$$$$
>  <Compound>
C=CC(=O)N1CCC(Nc2cc3c(Nc4ccc(Oc5ccnc(N6CCC(CO)(CO)C6)c5)cc4F)ncnc3cc2OC)CC1 [Example 155]

>  <Observed Measurement>
≥ 1000 nM

$$$$

Bench note: what GI50 did C=CC(=O)N1CCC(Nc2cc3c(Nc4ccc(Oc5ccn(-c6ccc(N(C)C)nn6)n5)cc4F)ncnc3cc2OC)CC1 [Example 48] show?
60 to 100 nM

Bench note: what GI50 did C=CC(=O)N1CCC(Nc2cc3c(Nc4ccc(Oc5nc(-c6cnc(C)c(F)c6)cs5)cc4F)ncnc3cc2OC)CC1 [Example 94] show?
≥ 1000 nM

* * *

Catalogue of GI50 readings, one per entry.
- Tested on: A431 cells

>  <Compound>
C=CC(=O)N1CCC(Nc2cc3c(Nc4ccc(Oc5ccnc(C(=O)OC)c5)cc4F)ncnc3cc2OC)CC1 [Example 211]

>  <Target Entity>
A431 cells

>  <GI50>
≥ 1000 nM

$$$$

Bench note: what GI50 did C=CC(=O)N1CCC(Nc2cc3c(Nc4ccc(Oc5ccnc(N6CC[C@@H](C#N)C6)c5)cc4F)ncnc3cc2OC)CC1 [Example 258] show?
600 to 1000 nM

Bench note: what GI50 did C=CC(=O)N1CCC(Nc2cc3c(Nc4ccc(Oc5ccnc(N6CCC(N)CC6)c5)cc4F)ncnc3cc2OC)CC1 [Example 178] show?
≥ 1000 nM

Bench note: what GI50 did C=CC(=O)N1CCC(Nc2cc3c(Nc4ccc(Oc5ccnc(-c6nnc(C)o6)c5)cc4F)ncnc3cc2OC)CC1 [Compound 193] show?
≥ 1000 nM

* * *

Catalogue of GI50 readings, one per entry.
- Test system: HCC827-YVMA cells (human ERBB2 exon20 insertion mutant A775_G776ins YVMA)
- Assay Text: Cell growth inhibition (CellTiter-Glo, 3 days) in HCC827-YVMA
- Type: cell-based
- Details: 72 h, 3 days after administration
- Experimental: 1. Preparation of HCC827-SVD, HCC827-ASV and HCC827-YVMA Cell Lines […] HCC827(ATCC), HCC827-SVD, HCC827-ASV, HCC827-YVMA were seeded in 96-well plates at 5000 cells/well in 90 μl of RPMI growth medium containing 10% FBS and 1% Penicillin Streptomycin. […] The plates were then incubated at room temperature for 10 minutes and luminescence was recorded by EnSpire plate reader (PerkinElmer).

These recorded examples may help you get a feel for the data.
>  <Compound>
C=CC(=O)N1CCC(Nc2cc3c(Nc4ccc(Oc5ccnc(N6CCC[C@H](C)C6)c5)cc4F)ncnc3cc2OC)CC1

>  <GI50>
< 30 nM

$$$$
>  <Compound>
C=CC(=O)N1CCC(Nc2cc3c(Nc4ccc(Oc5ccn(-c6ccc(C)nc6)n5)cc4F)ncnc3cc2OCC)CC1

>  <GI50>
< 30 nM

$$$$
>  <Compound>
C=CC(=O)N1CCC(Oc2cc3c(Nc4ccc(Oc5ccnc(N6CC7C(C6)C7(F)F)c5)cc4F)ncnc3cc2OC)CC1 (stereo not shown)

>  <GI50>
30 to 60 nM

$$$$
>  <Compound>
C=CC(=O)N1CCC(Nc2cc3c(Nc4ccc(Oc5ccnc(N6CCC(OC)C(C)(C)C6)c5)cc4F)ncnc3cc2OC)CC1 (stereo not shown)

>  <GI50>
60 to 100 nM

$$$$
>  <Compound>
C=CC(=O)N1CCC(Nc2cc3c(Nc4ccc(Oc5ccnc(N6CC(C)(C#N)C6)c5)cc4F)ncnc3cc2OC)CC1

>  <GI50>
< 30 nM

$$$$

Lookup: GI50 / HCC827-YVMA cells (human ERBB2 exon20 insertion mutant A775_G776ins YVMA) / C=CC(=O)N1CCC(Nc2cc3c(Nc4ccc(Oc5ccnc(N6C[C@H](OC)[C@H](OC)C6)c5)cc4F)ncnc3cc2OC)CC1
< 30 nM

Lookup: GI50 / HCC827-YVMA cells (human ERBB2 exon20 insertion mutant A775_G776ins YVMA) / C=CC(=O)N1CCC(Nc2cc3c(Nc4ccc(Oc5ccnc(C(=O)NC)c5)cc4F)ncnc3cc2OC)CC1
< 30 nM
